Source listed as patent US20250115600A1.

assayedTarget: AKT1 WT (Homo sapiens (Human), UniProt P31749)
Sequence (P31749 whole entry): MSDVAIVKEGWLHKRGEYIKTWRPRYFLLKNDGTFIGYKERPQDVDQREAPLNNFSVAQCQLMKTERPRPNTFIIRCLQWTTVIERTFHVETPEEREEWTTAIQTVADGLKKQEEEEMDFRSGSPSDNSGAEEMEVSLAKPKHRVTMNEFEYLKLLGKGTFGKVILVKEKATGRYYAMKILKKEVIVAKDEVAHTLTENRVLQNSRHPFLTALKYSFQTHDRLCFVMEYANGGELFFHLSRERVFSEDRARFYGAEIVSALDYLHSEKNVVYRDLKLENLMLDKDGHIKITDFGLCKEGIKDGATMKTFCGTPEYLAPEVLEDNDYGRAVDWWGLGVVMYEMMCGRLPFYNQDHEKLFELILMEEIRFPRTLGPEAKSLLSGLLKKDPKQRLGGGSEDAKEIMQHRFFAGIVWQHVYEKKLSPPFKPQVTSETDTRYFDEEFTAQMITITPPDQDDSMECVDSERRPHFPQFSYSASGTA
procedureDetails: Live cell target engagement (NanoBRET) in HEK293 cells
Assay type: cell-based
setupConditions: HEK293, 2 hours at 37° C.
measuredQuantity: IC50

# annotated cases, reported IC50 shown
compound | assayedTarget | result
Nc1ncccc1-c1nc2ccc(C3CC3)nc2n1-c1ccc(CNC(=O)Cc2ccc(C=O)c(O)c2)cc1 | AKT1 WT (Homo sapiens (Human), UniProt P31749) | < 100 nM
Nc1ncccc1-c1nc2ccc(-c3ccc(N4CCOCC4)cc3)nc2n1-c1ccc(CNC(=O)Cc2ccc(C=O)c(O)c2)cc1 | AKT1 WT (Homo sapiens (Human), UniProt P31749) | < 100 nM
CC(C)(C)c1cc(C(=O)NCc2ccc(-n3c(-c4cccnc4N)nc4ccc(-c5ccccc5)nc43)cc2)cc(C=O)c1O | AKT1 WT (Homo sapiens (Human), UniProt P31749) | > 500 nM
CN(CCc1ccc(C=O)c(O)c1)C(=O)c1ccc(-n2c(-c3cccnc3N)nc3ccc(-c4ccccc4)nc32)cc1 | AKT1 WT (Homo sapiens (Human), UniProt P31749) | 100 to 500 nM
Nc1ncccc1-c1nc2cccnc2n1-c1ccc(CNC(=O)c2ccc(O)c(C=O)n2)cc1 | AKT1 WT (Homo sapiens (Human), UniProt P31749) | > 500 nM
CC(C)(C(=O)NCc1ccc(-n2c(-c3cccnc3N)nc3ccc(-c4ccccc4)nc32)cc1)c1ccc(C=O)c(O)c1 | AKT1 WT (Homo sapiens (Human), UniProt P31749) | 100 to 500 nM
CC1(c2ccc3nc(-c4cccnc4N)n(-c4ccc(CNC(=O)Cc5ccc(C=O)c(O)c5)cc4)c3n2)CC1 | AKT1 WT (Homo sapiens (Human), UniProt P31749) | 100 to 500 nM
Cn1cc(C(=O)Nc2cc(CC(=O)NCc3ccc(-n4c(-c5cccnc5N)nc5cccnc54)cc3)ccc2C=O)cn1 | AKT1 WT (Homo sapiens (Human), UniProt P31749) | > 500 nM

Identify the measured IC50 of `Nc1ncccc1-c1nc2ccc(-c3ccccn3)nc2n1-c1ccc(CNCCc2ccc(C=O)c(O)c2)cc1` for AKT1 WT (Homo sapiens (Human), UniProt P31749).
< 100 nM

Same read-out for `Nc1ncccc1-c1nc2ccc(-c3cccc(N4CCOCC4)c3)nc2n1-c1ccc(CNC(=O)c2cc(F)c(O)c(C=O)c2)cc1` ?
< 100 nM

Same read-out for `Nc1ncccc1-c1nc2ccc(-c3ccccc3)nc2n1-c1ccc(CNC(=O)c2cc(Br)c(O)c(C=O)c2)cc1` ?
< 100 nM

Same read-out for Nc1ncccc1-c1nc2ccc(-c3ccccc3)nc2n1-c1ccc(CNC(=O)C(F)c2ccc(C=O)c(O)c2)cc1 (stereo not shown) ?
< 100 nM

----------
assayedTarget: AKT1 E17K (Homo sapiens (Human), UniProt P31749, E17K)
Sequence (P31749 whole entry E17K): as the sequence (P31749 whole entry) above, with E17K counted along it
procedureDetails: Live cell target engagement (NanoBRET) in HEK293 cells
Type: cell-based
measuredQuantity: AKT1 E17K IC50: Selectivity vs AKT1 WT
Please reply with the value in numeric form only.

compound | assayedTarget | quantitativeReadout
Nc1ncccc1-c1nc2ccc(Cl)nc2n1-c1ccc(CNCCc2ccc(C=O)c(O)c2)cc1 | AKT1 E17K (Homo sapiens (Human), UniProt P31749, E17K) | 3.7
Nc1ncccc1-c1nc2ccc(-c3cccc(N4CCOCC4)c3)nc2n1-c1ccc(CNCCc2ccc(C=O)c(O)c2)cc1 | AKT1 E17K (Homo sapiens (Human), UniProt P31749, E17K) | 1.2
Nc1ncccc1-c1nc2ccc(-c3ccccc3)nc2n1-c1ccc(CNC(=O)C(F)c2ccc(C=O)c(O)c2)cc1 (stereo not shown) | AKT1 E17K (Homo sapiens (Human), UniProt P31749, E17K) | 1.2
CC(=O)Nc1cccc(-c2ccc3nc(-c4cccnc4N)n(-c4ccc(CNC(=O)Cc5ccc(C=O)c(O)c5)cc4)c3n2)c1 | AKT1 E17K (Homo sapiens (Human), UniProt P31749, E17K) | 3.1
Nc1ncccc1-c1nc2ccc(-c3ccccc3)nc2n1-c1ccc(CNCCc2ccc(C=O)cc2)cc1 | AKT1 E17K (Homo sapiens (Human), UniProt P31749, E17K) | 0.28
Nc1ncccc1-c1nc2ccc(-c3cccc(N4CCOCC4)c3)nc2n1-c1ccc(CNC(=O)Cc2ccc(C=O)c(O)c2F)cc1 | AKT1 E17K (Homo sapiens (Human), UniProt P31749, E17K) | 1.5

Here is another compound to look at.
What value of AKT1 E17K IC50: Selectivity vs AKT1 WT has been recorded for this entry: `Nc1ncccc1-c1nc2ccc(-c3ccccn3)nc2n1-c1ccc(CNC(=O)Cc2ccc(C=O)c(O)c2)cc1`
2.7
